Molecular target: T1, D-Abl SH2 domain (synthetic mirror-image SH2 domain of human BCR::ABL1) (human, UniProt P00519-2 141-240, all residues in D-configuration)
T1 construct: Mirror-image protein; also called D-Bcr-Abl SH2; D-SH2
T1 sequence: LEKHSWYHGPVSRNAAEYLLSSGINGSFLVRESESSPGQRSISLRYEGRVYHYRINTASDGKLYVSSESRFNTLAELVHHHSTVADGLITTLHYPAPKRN
Assay: fluorescence polarisation; direct binding of the fluorescent D-pY peptide to D-Abl SH2 (Fig. S1); conditions not shown
Details: both partners purified
Non-standard residues stand in square brackets, D forms with d. *: point of attachment. 5FAM = O=C1OC2(c3ccc(O)cc3Oc3cc(O)ccc32)c2ccc(C(=O)*)cc21

# BINDER, Kd
records = [
    ("5FAM-[dE][dP][dQ][dpY][dE][dE][dI][dP][dI][dY][dL][dK]-NH2 (also called D-pYEEI peptide; D-phospho tyrosine (pY) peptide; source: synthetic peptide, bought: Peptide Synthetics (UK)) [D-pY peptide 5-carboxyfluoresceine-EPQpYEEIPIYLK-CONH2 in D-configuration]", "~5 µM"),
]

Ref: paper PMC11666773
